// provenance: patent US20110092476A1

- procedureDetails: Half-life in human liver microsomes (HLM)
- particulars: pH 7.4
measurementName: half-life at 1 μM (h)
Lab book: enter the figure in h, no units written.

Input: # query: half-life at 1 μM of entry C[C@H](C(=O)Nc1cccc2c(=O)n([C@@H](C)C(N)=O)ccc12)c1ccc(Cl)cc1
Output: 0.97

Input: So what does the record say about half-life at 1 μM for C[C@H](C(N)=O)n1ccc2c(NC(=O)Cc3cccc(C(F)(F)F)c3F)c(Cl)ccc2c1=O ?
Output: 1.16

Input: Look up half-life at 1 μM for this molecule: CC(C)(CO)n1ccc2c(NC(=O)Cc3ccc(Cl)c(C(F)(F)F)c3)cccc2c1=O
Output: 0.55

Input: What value of half-life at 1 μM has been reported for the following molecule? C[C@H](CO)n1ccc2c(NC(=O)Cc3ccc(C(F)(F)F)c(F)c3)c(Cl)ccc2c1=O
Output: 1.63

Input: Any idea what half-life at 1 μM was measured for C[C@H](C(=O)Nc1cccc2c(=O)n([C@H](C)C(N)=O)ccc12)c1ccc(Cl)cc1 ?
Output: 2.31

Input: Query (molecule): C[C@H](CO)n1ccc2c(NC(=O)Cc3ccc(F)c(C(F)(F)F)c3)cccc2c1=O ; field requested: half-life at 1 μM
Output: 0.93

Input: half-life at 1 μM lookup needed for O=C(Cc1ccc(F)c(C(F)(F)F)c1)Nc1c(Cl)ccc2c(=O)n(CCO)ccc12 , thanks.
Output: 1.08

Input: Look up half-life at 1 μM: C[C@H](C(N)=O)n1ccc2c(NC(=O)Cc3ccc(Cl)cc3)cccc2c1=O
Output: 1.29

Input: Which value of half-life at 1 μM has been reported for C[C@H](C(N)=O)n1ccc2c(NC(=O)Cc3cccc(C(F)(F)F)c3F)cccc2c1=O in the records?
Output: 1.24

Input: State the recorded half-life at 1 μM for this entry: O=C(Cc1ccc(Cl)c(C(F)(F)F)c1)Nc1cccc2c(=O)n(C(CO)CO)ccc12
Output: 0.72

Input: Which half-life at 1 μM value is on record for CC(C(=O)Nc1cccc2c(=O)n([C@H](C)C(N)=O)ccc12)c1ccc(Cl)cc1 (stereo partly drawn) ?
Output: 2.11

Input: Look up half-life at 1 μM: C[C@@H](C(N)=O)n1ccc2c(NC(=O)Cc3ccc(Cl)c(Cl)c3)cccc2c1=O
Output: 0.97
